system: male ICR mouse; experiment: Acetic acid-induced writhing test in mouse; type: in vivo; conditions: Mus musculus, po, 1 h, at 10 po (method: 10 mg/kg oral, 1 hour before acetic acid); read-out: AA Writhing: Suppression ratio of Pain response
Decision: inhibition in vivo at 10 mg/kg compared against 60%; not below it gives True, below it gives False.

> print(dat)
                                    compound  answer.label
 1  CC(CC(OC(N)=O)c1ccccc1)N1CCN(c2ccc(F)cc2F)CC1 (centres unmarked)          True
 2  COc1ccc(N2CCN(CCC(OC(N)=O)c3ccc(C)c(C)c3)CC2)cc1 (centres unmarked)         False
 3  COc1ccc(N2CCN(C(C)CC(OC(N)=O)c3ccccc3)CC2)cc1 (centres unmarked)          True
 4  Cc1ccc(N2CCN(CCC(OC(N)=O)c3ccccc3)CC2)cc1C (centres unmarked)          True
 5  NC(=O)OC(CCN1CCN(c2ccc(OC(=O)OCc3ccccc3)cc2)CC1)c1ccc(F)cc1 (centres unmarked)         False
 6  COc1ccc(N2CCN(CCC(OC(N)=O)c3ccc([N+](=O)[O-])cc3)CC2)cc1 (centres unmarked)          True
 7  NC(=O)OC(CCN1CCN(c2ccc(O)cc2)CC1)c1ccc(Cl)c(Cl)c1 (centres unmarked)         False
 8  COc1ccccc1N1CCN(CCC(OC(N)=O)c2ccc(F)cc2)CC1 (centres unmarked)         False
 9  COc1ccc(N2CCN(CCC(OC(N)=O)c3ccccc3C)CC2)cc1 (centres unmarked)         False
10  COc1ccc(N2CCN(CCC(OC(N)=O)c3cccc(OC)c3)CC2)cc1 (centres unmarked)          True
11  COc1ccc(N2CCN(CCC(OC(N)=O)c3cccc([N+](=O)[O-])c3)CC2)cc1 (centres unmarked)         False
12  NC(=O)OC(CCN1CCN(c2ccc3c(c2)OCCO3)CC1)c1ccccc1 (centres unmarked)         False
13  NC(=O)OC(CCN1CCN(c2ccc(F)cc2)CC1)c1ccc(F)cc1 (centres unmarked)         False
14  COc1ccc(N2CCN(CCC(OC(N)=O)c3ccc(Cl)c(Cl)c3)CC2)cc1 (centres unmarked)         False
15  CC(CC(OC(N)=O)c1ccccc1)N1CCN(c2ncc(Cl)cc2Cl)CC1 (centres unmarked)         False
16  COc1ccc(N2CCN(CCC3OC(=O)Nc4ccccc43)CC2)cc1 (centres unmarked)         False
17  Cc1cccc(C)c1N1CCN(CCC(OC(N)=O)c2ccccc2)CC1 (centres unmarked)         False
18  COc1cc(OC)cc(N2CCN(CCC(OC(N)=O)c3ccccc3)CC2)c1 (centres unmarked)         False
19  COc1ccc(Cl)cc1N1CCN(CCC(OC(N)=O)c2ccccc2)CC1 (centres unmarked)         False
20  NC(=O)OC(CCN1CCN(c2ccc([N+](=O)[O-])cc2)CC1)c1ccc(F)cc1 (centres unmarked)          True
21  CC(CC(OC(N)=O)c1ccccc1)N1CCN(c2ccc([N+](=O)[O-])cc2)CC1 (centres unmarked)         False
22  NC(=O)OC(CCN1CCN(c2ccc(Cl)c(Cl)c2)CC1)c1ccc(F)cc1 (centres unmarked)         False
23  COc1ccc(N2CCN(CCC(OC(N)=O)c3ccc4c(c3)OCO4)CC2)cc1 (centres unmarked)         False
24  COc1ccc(N2CCN(CCC(OC(N)=O)c3ccc(Cl)c(C(F)(F)F)c3)CC2)cc1 (centres unmarked)         False
25  CC(CC(OC(N)=O)c1ccccc1)N1CCN(c2ccc(Cl)cc2)CC1 (centres unmarked)          True
26  CCOc1ccccc1N1CCN(CCC(OC(N)=O)c2ccc(F)cc2)CC1 (centres unmarked)         False
27  COc1ccc(N2CCN(CCC(OC(N)=O)c3ccc(C)cc3C)CC2)cc1 (centres unmarked)          True
28  COc1ccc(N2CCN(CCC(OC(N)=O)c3ccccc3)CC2)c(OC)c1 (centres unmarked)         False
29  COc1ccc(N2CCN(CCC(OC(N)=O)c3ccc(C(C)(C)C)cc3)CC2)cc1 (centres unmarked)          True
30  COc1ccc(C(CCN2CCN(c3ccccc3)CC2)OC(N)=O)cc1 (centres unmarked)         False
31  COc1ccc(N2CCN(CCC(OC(N)=O)c3ccccc3C(F)(F)F)CC2)cc1 (centres unmarked)          True
32  COc1ccc(N2CCN(CCC(OC(N)=O)c3cccc(Cl)c3)CC2)cc1 (centres unmarked)          True

###

tested on: male ICR mouse; test: Acetic acid-induced writhing test in mouse; type: in vivo; details: Mus musculus; po; unit not given (method doses in mg/kg); read-out: AA Writhing: ED50
Decision: ED50 beneath 4 mg/kg gives 1; ED50 meeting or exceeding 4 mg/kg gives -1.

> print(dat)
                                    compound  answer.label
 1  NC(=O)OC(c1ccccc1)C(F)CN1CCN(c2ccccc2)CC1 (stereo not drawn) [Example 117]            -1
 2  CC(=O)Oc1ccc(N2CCN(CCC(OC(N)=O)c3ccccc3)CC2)cc1 (stereo not drawn) [Example 86]            -1
 3  CC(=O)Oc1ccc(N2CCN(CCC(OC(N)=O)c3ccc(F)cc3)CC2)cc1 (stereo not drawn) [Example 92]            -1
 4  NC(=O)OC(CCN1CCN(c2ccccc2)CC1)c1ccc(Cl)cc1 (stereo not drawn) [Example 2]             1
 5  NC(=O)OC(CCN1CCN(c2ccccc2)CC1)c1ccc(F)cc1 (stereo not drawn) [Example 6]             1
 6  COc1ccc(N2CCN(CC[C@@H](OC(N)=O)c3ccccc3)CC2)cc1 [Example 102]             1
 7  NC(=O)OC(CCN1CCN(c2ccc(O)cc2)CC1)c1ccc(F)cc1 (stereo not drawn) [Example 88]            -1
 8  COc1ccc(N2CCN(CCC(OC(N)=O)c3ccccc3)CC2)cc1 (stereo not drawn) [Example 20]             1
 9  NC(=O)O[C@H](CCN1CCN(c2ccc(O)cc2)CC1)c1ccccc1 [Example 105]            -1
10  NC(=O)OC(CCN1CCN(c2cccc(Cl)c2)CC1)c1ccccc1 (stereo not drawn) [Example 36]            -1
11  NC(=O)OC(CCN1CCN(c2ccccc2)CC1)c1ccccc1 (stereo not drawn) [Example 1]            -1
12  NC(=O)OC(CCCN1CCN(c2ccccc2)CC1)c1ccccc1 (stereo not drawn) [Example 94]             1
13  COc1ccc(N2CCN(CCC(OC(N)=O)c3ccc(F)cc3)CC2)cc1 (stereo not drawn) [Example 77]            -1
14  COc1ccccc1N1CCN(CCC(OC(N)=O)c2ccccc2)CC1 (stereo not drawn) [Example 27]            -1
15  CCOC(=O)Oc1ccc(N2CCN(CCC(OC(N)=O)c3ccc(F)cc3)CC2)cc1 (stereo not drawn) [Example 90]            -1

###

Below, each of the compounds is paired with its reported inhibition in vivo at 10 mg/kg value.
system: male ICR mouse; assay: Acetic acid-induced writhing test in mouse; assay type: in vivo; details: Mus musculus, po, 1 h, at 10 po (method: 10 mg/kg oral, 1 hour before acetic acid); read-out: AA Writhing: Suppression ratio of Pain response
assay.metric: inhibition in vivo at 10 mg/kg (%)

> print(dat)
                                   compound  reading
1  COc1ccc(N2CCN(CCC(OC(N)=O)c3cccc(C(F)(F)F)c3)CC2)cc1 (stereo not drawn)       48
2  COc1ccc(C(CCN2CCN(c3ccc(OC)cc3)CC2)OC(N)=O)cc1 (stereo not drawn)       53
3  NC(=O)OC(CCN1CCN(c2ccccc2)CC1)c1ccc([N+](=O)[O-])cc1 (stereo not drawn)       91
4  CC(CC(OC(N)=O)c1ccccc1)N1CCN(c2ccc(Cl)c(Cl)c2)CC1 (stereo not drawn)       68
5  COc1ccc(N2CCN(CCC(OC(N)=O)c3ccc(C)cc3)CC2)cc1 (stereo not drawn)       93
6  NC(=O)OC(CCN1CCN(c2ccc3c(c2)OCO3)CC1)c1ccccc1 (stereo not drawn)       93
7  COc1ccc(N2CCN(CC3CCc4ccccc4C3OC(N)=O)CC2)cc1 (stereo not drawn)       55
8  NC(=O)OC(CCN1CCN(c2ccc(OC(F)(F)F)cc2)CC1)c1ccccc1 (stereo not drawn)       18
9  CC(CC(OC(N)=O)c1ccccc1)N1CCN(c2cnc3ccccc3n2)CC1 (stereo not drawn)       72

Recorded values, source patent US8815852B2.
